Just for reference, the supplement of paper PMC11061612 is where these values come from.

Tested on: NCI-H1650 (Lung Adenocarcinoma)
Experiment notes: combination Emax (second highest fraction inhibited in the dose matrix, 72 h); higher = more inhibition; extreme values may be limits of the assay
I would appreciate it if you labelled entries 1 when combination Emax is 0.2 or higher, otherwise 0.

[[record]]
compound = "Cc1cc2ncnn2cc1Nc1ncc2c(n1)n(C1CCOCC1)c(=O)n2C [AZD7648] + CN(C)CCCOc1ccc(-c2ccc3ncc4c(c3c2)n(C2CCOCC2)c(=O)n4C)cn1 [AZD0156] (first compound max 10 µM, 7x7, partner max 1 µM)"
label_class = 1

[[record]]
compound = "CN(CCO)CC[C@H](CSc1ccccc1)Nc1ccc(S(=O)(=O)NC(=O)c2ccc(N3CCC([C@@H](O)c4ccccc4-c4ccc(Cl)cc4)CC3)cc2)cc1S(=O)(=O)C(F)(F)F [AZD4320] + C1CN(CCC1(C(=O)N[C@@H](CCO)C2=CC=C(C=C2)Cl)N)C3=NC=NC4=C3C=CN4 [Capivasertib] (first compound max 1 µM, 7x7, partner max 3 µM)"
label_class = 0

[[record]]
compound = "Cc1c2c(nn1C)CSCc1cc(n(C)n1)CSc1cc(c3ccccc3c1)OCCCc1c(C(=O)O)n(C)c3c-2c(Cl)ccc13 [AZD5991] + C[C@@H](Nc1cc(F)cc(F)c1)c1cc(C(=O)N(C)C)cc2c(=O)cc(N3CCOCC3)oc12 [AZD8186] (first compound max 1 µM, 7x7, partner max 3 µM)"
label_class = 1

[[record]]
compound = "C=CCn1c(=O)c2cnc(Nc3ccc(N4CCN(C)CC4)cc3)nc2n1-c1cccc(C(C)(C)O)n1 [AZD1775] + C1CN(CCC1(C(=O)N[C@@H](CCO)C2=CC=C(C=C2)Cl)N)C3=NC=NC4=C3C=CN4 [Capivasertib] (first compound max 3 µM, partner max 3 µM)"
label_class = 1

[[record]]
compound = "COc1nnc2ccc(N3CCC(c4ccc(OCCN5CCN(C)C(=O)[C@H]5C)cc4)CC3)nn12 [AZD5153] + CC1(C)CCC(CN2CCN(c3ccc(C(=O)NS(=O)(=O)c4ccc(NCC5CCOCC5)c([N+](=O)[O-])c4)c(Oc4cnc5[nH]ccc5c4)c3)CC2)=C(c2ccc(Cl)cc2)C1 [Venetoclax] (first compound max 1 µM, 7x7, partner max 1 µM)"
label_class = 1

[[record]]
compound = "CC(=O)c1c(C)c2cnc(Nc3ccc(N4CCNCC4)cn3)nc2n(C2CCCC2)c1=O [Palbociclib] + CC1(C)CCC(CN2CCN(c3ccc(C(=O)NS(=O)(=O)c4ccc(NCC5CCOCC5)c([N+](=O)[O-])c4)c(Oc4cnc5[nH]ccc5c4)c3)CC2)=C(c2ccc(Cl)cc2)C1 [Venetoclax] (first compound max 10 µM, 7x7, partner max 1 µM)"
label_class = 0

[[record]]
compound = "Cc1c2c(nn1C)CSCc1cc(n(C)n1)CSc1cc(c3ccccc3c1)OCCCc1c(C(=O)O)n(C)c3c-2c(Cl)ccc13 [AZD5991] + Cn1cnc2c(F)c(Nc3ccc(Br)cc3Cl)c(C(=O)NOCCO)cc21 [Selumetinib] (first compound max 1 µM, 7x7, partner max 3 µM)"
label_class = 0

[[record]]
compound = "CC1(C)CCC(CN2CCN(c3ccc(C(=O)NS(=O)(=O)c4ccc(NCC5CCOCC5)c([N+](=O)[O-])c4)c(Oc4cnc5[nH]ccc5c4)c3)CC2)=C(c2ccc(Cl)cc2)C1 [Venetoclax] + CN(C)CCCOc1ccc(-c2ccc3ncc4c(c3c2)n(C2CCOCC2)c(=O)n4C)cn1 [AZD0156] (first compound max 1 µM, 7x7, partner max 1 µM)"
label_class = 0

[[record]]
compound = "CN(CCO)CC[C@H](CSc1ccccc1)Nc1ccc(S(=O)(=O)NC(=O)c2ccc(N3CCC([C@@H](O)c4ccccc4-c4ccc(Cl)cc4)CC3)cc2)cc1S(=O)(=O)C(F)(F)F [AZD4320] + Cn1cnc2c(F)c(Nc3ccc(Br)cc3Cl)c(C(=O)NOCCO)cc21 [Selumetinib] (first compound max 1 µM, 7x7, partner max 3 µM)"
label_class = 1

